Molecular target: ROCK I (Homo sapiens)
Sequence (Q13464 whole entry): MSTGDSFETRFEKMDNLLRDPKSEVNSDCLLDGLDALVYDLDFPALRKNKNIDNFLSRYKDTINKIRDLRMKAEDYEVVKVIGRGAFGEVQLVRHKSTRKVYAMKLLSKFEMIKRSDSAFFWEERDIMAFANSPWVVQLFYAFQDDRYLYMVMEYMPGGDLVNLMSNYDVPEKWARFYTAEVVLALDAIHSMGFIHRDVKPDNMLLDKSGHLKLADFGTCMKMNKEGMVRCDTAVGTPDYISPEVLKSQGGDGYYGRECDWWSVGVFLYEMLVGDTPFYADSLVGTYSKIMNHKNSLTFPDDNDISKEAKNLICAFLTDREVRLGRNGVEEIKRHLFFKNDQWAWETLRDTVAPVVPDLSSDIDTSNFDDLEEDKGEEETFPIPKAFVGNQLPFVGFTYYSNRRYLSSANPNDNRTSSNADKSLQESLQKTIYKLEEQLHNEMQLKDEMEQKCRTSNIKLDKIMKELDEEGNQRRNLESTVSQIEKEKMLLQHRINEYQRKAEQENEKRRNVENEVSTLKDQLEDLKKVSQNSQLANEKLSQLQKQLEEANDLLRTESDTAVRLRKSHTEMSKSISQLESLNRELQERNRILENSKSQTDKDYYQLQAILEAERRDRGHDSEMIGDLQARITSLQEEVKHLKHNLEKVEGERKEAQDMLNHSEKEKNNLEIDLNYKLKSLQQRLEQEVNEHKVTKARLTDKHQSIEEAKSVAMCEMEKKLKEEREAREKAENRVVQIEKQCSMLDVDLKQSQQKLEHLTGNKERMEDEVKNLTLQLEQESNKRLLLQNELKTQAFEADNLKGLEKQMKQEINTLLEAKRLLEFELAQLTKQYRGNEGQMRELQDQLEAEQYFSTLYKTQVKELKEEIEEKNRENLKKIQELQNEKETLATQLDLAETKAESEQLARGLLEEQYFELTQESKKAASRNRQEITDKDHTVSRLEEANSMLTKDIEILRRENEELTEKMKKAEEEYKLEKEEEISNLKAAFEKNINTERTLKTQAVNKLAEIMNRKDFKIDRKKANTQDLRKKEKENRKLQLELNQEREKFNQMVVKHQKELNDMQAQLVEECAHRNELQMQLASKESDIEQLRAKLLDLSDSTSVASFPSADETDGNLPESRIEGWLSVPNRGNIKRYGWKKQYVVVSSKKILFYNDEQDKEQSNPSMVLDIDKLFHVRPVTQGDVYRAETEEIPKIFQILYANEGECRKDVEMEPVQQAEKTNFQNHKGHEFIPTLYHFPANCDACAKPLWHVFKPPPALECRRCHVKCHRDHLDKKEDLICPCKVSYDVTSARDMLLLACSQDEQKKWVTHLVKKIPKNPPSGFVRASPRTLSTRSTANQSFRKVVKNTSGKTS
Assay: ROCK-I inhibition assay (radioactive enzyme assay, MBP substrate)
Assay type: biochemical
Details: Table 6; enzyme inhibition data (Ki)
pKi: −log10 of the molar value.
endpoint: pKi

### Prompt Give the observed pKi of CCOC(=O)C1CCN(C(=O)c2cc(-c3c(Cl)cnc4[nH]ccc34)c[nH]2)CC1 for ROCK I (Homo sapiens).
### Response < 5.40

### Prompt Under ROCK I (Homo sapiens): report pKi of CCCS(=O)(=O)N1CCCC(Nc2c(Cl)cnc3[nH]ccc23)C1 (stereo not drawn) .
### Response 5.30 to 6.30

### Prompt Answer with pKi of CS(=O)(=O)N1CCCC(Nc2c(Cl)cnc3[nH]ccc23)C1 (stereo not drawn) measured for ROCK I (Homo sapiens).
### Response 5.30 to 6.30

### Prompt Give pKi for this entry on ROCK I (Homo sapiens): CC(C)NC(=O)c1cc(-c2ccnc3[nH]ccc23)c[nH]1
### Response > 6.30

### Prompt Under ROCK I (Homo sapiens), report pKi for CCN(Cc1ccccc1)C(=O)c1cc(-c2c(Cl)cnc3[nH]ccc23)c[nH]1
### Response 5.30 to 6.30

### Prompt State pKi (ROCK I (Homo sapiens)) of N#CCCN(Cc1ccccc1)C(=O)c1cc(-c2c(F)cnc3[nH]ccc23)c[nH]1 .
### Response > 6.30

### Prompt Provide pKi, recorded with ROCK I (Homo sapiens), of CC1CC(Nc2c(Cl)cnc3[nH]ccc23)CC(C)(C)C1 (stereo not drawn)
### Response 5.30 to 6.30

### Prompt Fill in pKi for O=C(CC1CCCC1)Nc1nc(-c2ccnc3[nH]ccc23)cs1 tested with ROCK I (Homo sapiens).
### Response > 6.30

### Prompt Output reported pKi of the compound CC(C)[C@H](C(=O)NCC(F)(F)F)n1ccc2cnc(-c3ccnc4[nH]ccc34)nc21 on ROCK I (Homo sapiens).
### Response < 5.40

### Prompt Give pKi; test system ROCK I (Homo sapiens); compound N#Cc1ccc(Cl)cc1Nc1c(Cl)cnc2[nH]ccc12
### Response < 5.40

### Prompt Recall the reported pKi of CN(Cc1cccnc1)C(=O)c1cc(-c2c(Cl)cnc3[nH]ccc23)c[nH]1 on ROCK I (Homo sapiens) and write it down.
### Response 5.30 to 6.30

### Prompt For ROCK I (Homo sapiens), give the measured pKi of the entry O=C(Nc1ccccc1)c1cc(-c2ccnc3[nH]ccc23)c[nH]1
### Response > 6.30

### Prompt Output reported pKi of the compound c1cnc2c(-c3ccnc4[nH]ccc34)cccc2c1 on ROCK I (Homo sapiens).
### Response < 5.40

### Prompt Answer with pKi of CCCN(CC1CC1)C(=O)c1cc(-c2c(F)cnc3[nH]ccc23)c[nH]1 measured for ROCK I (Homo sapiens).
### Response 5.30 to 6.30

### Prompt // output pKi; input O=C(NC1CCCC1)c1cc(-c2ccnc3[nH]ccc23)c[nH]1 ; system ROCK I (Homo sapiens)
### Response > 6.30

### Prompt Lab note: ROCK I (Homo sapiens) assay, enter pKi for C#CCN(C)C(=O)c1ccc(-c2ccnc3[nH]ccc23)s1 here
### Response > 6.30

### Prompt Fill in: pKi on ROCK I (Homo sapiens), entry C[C@@H]1CC[C@H](C)N1C(=O)c1csc(-c2ccnc3[nH]ccc23)n1
### Response > 6.30

### Prompt Fill: pKi (ROCK I (Homo sapiens)) for this compound O=C(NCCC(F)(F)F)c1ccccc1-c1ccnc2[nH]ccc12
### Response < 5.40

### Prompt Provide pKi, system ROCK I (Homo sapiens), entry O=C(c1csc(-c2ccnc3[nH]ccc23)n1)N1CCCC1
### Response > 6.30

### Prompt Report measured pKi on ROCK I (Homo sapiens); entry: O=S(=O)(C1CC1)N1CCCC(Nc2c(Cl)cnc3[nH]ccc23)C1 (stereo not drawn)
### Response 5.30 to 6.30

### Prompt Lab note: record pKi of O=C(c1cc(-c2c(F)cnc3[nH]ccc23)c[nH]1)N(CCC(F)(F)F)CC1CC1 tested on ROCK I (Homo sapiens).
### Response 5.30 to 6.30

### Prompt Lab note: ROCK I (Homo sapiens) assay, enter pKi for CCCN(CC1CC1)C(=O)c1cc(-c2c(Cl)cnc3[nH]ccc23)c[nH]1 here
### Response 5.30 to 6.30

### Prompt # return pKi of COc1cccc(-c2ccnc3[nH]ccc23)c1OC (system: ROCK I (Homo sapiens))
### Response 5.30 to 6.30

### Prompt Answer briefly: pKi recorded on ROCK I (Homo sapiens) for Clc1cnc2[nH]ccc2c1-c1csc2ccccc12
### Response 5.30 to 6.30

### Prompt Param request: pKi | system ROCK I (Homo sapiens) | item Nc1nc(-c2ccnc3[nH]ccc23)ncc1F
### Response < 5.40

### Prompt State recorded pKi with ROCK I (Homo sapiens), entry COCCN(CCOC)C(=O)c1cc(-c2ccnc3[nH]ccc23)c[nH]1 , no comment.
### Response 5.30 to 6.30

### Prompt Enter measured pKi, system ROCK I (Homo sapiens), for the compound shown: COCCN(CCOC)C(=O)c1ccc(-c2ccnc3[nH]ccc23)s1
### Response > 6.30

### Prompt Tell me its pKi on ROCK I (Homo sapiens): O=C(c1cc(-c2ccnc3[nH]ccc23)c[nH]1)N1CCCC(O)C1 (stereo not drawn)
### Response 5.30 to 6.30

### Prompt Consider the compound C=CCN(CC=C)C(=O)c1csc(-c2ccnc3[nH]ccc23)n1 tested on ROCK I (Homo sapiens); state its pKi.
### Response > 6.30

### Prompt Please look at N#CCC(=O)N1CC[C@H](Nc2c(Cl)cnc3[nH]ccc23)C1 and tell me its recorded pKi on ROCK I (Homo sapiens).
### Response < 5.40

### Prompt Enter measured pKi, system ROCK I (Homo sapiens), for the compound shown: NC(=O)c1ccccc1-c1ccnc2[nH]ccc12
### Response < 5.40

### Prompt Find pKi for COc1ccc(-c2ccnc3[nH]ccc23)c(OC)c1 on ROCK I (Homo sapiens) and write it down.
### Response 5.30 to 6.30

### Prompt Tell me pKi of CNc1ccccc1-c1ccnc2[nH]ccc12 when tested on ROCK I (Homo sapiens).
### Response < 5.40

### Prompt Determine reported pKi for C#CCNC(=O)c1cc(-c2ccnc3[nH]ccc23)c[nH]1 ; test system: ROCK I (Homo sapiens).
### Response > 6.30

### Prompt Provide pKi, recorded with ROCK I (Homo sapiens), of CCC(=O)N1CC[C@@H](Nc2c(Cl)cnc3[nH]ccc23)C1
### Response 5.30 to 6.30

### Prompt Print ROCK I (Homo sapiens) pKi for CC(C)[C@@H]1CC[C@@H](C)C[C@H]1Nc1c(Cl)cnc2[nH]ccc12 .
### Response < 5.40

====

Target: JAK2 (Homo sapiens, UniProt O60674)
Sequence (O60674 whole entry): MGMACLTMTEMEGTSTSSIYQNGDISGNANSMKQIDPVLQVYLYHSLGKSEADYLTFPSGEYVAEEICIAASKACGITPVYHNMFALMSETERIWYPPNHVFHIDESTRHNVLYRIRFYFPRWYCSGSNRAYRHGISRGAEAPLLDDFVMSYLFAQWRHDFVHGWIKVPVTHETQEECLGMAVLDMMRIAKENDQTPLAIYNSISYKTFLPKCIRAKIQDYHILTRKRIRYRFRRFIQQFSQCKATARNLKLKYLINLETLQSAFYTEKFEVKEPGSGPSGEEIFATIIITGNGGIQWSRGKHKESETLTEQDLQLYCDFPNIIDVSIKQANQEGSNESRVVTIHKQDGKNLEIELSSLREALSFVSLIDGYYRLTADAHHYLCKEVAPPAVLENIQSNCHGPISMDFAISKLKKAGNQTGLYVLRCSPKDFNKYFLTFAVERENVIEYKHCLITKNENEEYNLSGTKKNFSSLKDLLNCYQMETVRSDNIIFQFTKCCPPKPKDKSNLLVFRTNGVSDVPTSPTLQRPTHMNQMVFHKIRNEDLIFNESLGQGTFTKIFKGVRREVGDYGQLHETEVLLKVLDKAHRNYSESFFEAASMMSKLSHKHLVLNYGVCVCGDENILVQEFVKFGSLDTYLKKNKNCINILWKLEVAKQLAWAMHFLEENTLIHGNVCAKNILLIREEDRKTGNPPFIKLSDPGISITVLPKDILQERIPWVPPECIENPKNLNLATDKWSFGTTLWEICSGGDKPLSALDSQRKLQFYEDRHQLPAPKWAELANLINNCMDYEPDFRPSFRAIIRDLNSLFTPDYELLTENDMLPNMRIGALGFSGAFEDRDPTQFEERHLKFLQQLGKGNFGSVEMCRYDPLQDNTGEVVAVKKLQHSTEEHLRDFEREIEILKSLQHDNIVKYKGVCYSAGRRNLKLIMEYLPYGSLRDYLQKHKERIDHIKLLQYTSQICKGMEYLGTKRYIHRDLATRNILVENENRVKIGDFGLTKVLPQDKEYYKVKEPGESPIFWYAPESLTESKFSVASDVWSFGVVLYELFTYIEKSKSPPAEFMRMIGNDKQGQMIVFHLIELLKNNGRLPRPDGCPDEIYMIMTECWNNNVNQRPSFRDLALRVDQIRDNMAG
Assay: JAK2 inhibition assay (as Example 3 with JAK-2 enzyme)
Type: biochemical
Conditions: Table 6; enzyme inhibition data (Ki)
endpoint: Ki

### Prompt Please list Ki recorded for the compound Fc1cnc2[nH]ccc2c1-c1ccc(CN(CCC(F)(F)F)CC2CC2)o1
### Response < 500 nM

### Prompt Report Ki, nothing else, for this compound: O=C(NCC(F)(F)F)[C@H]1CCCN1c1nc(-c2ccnc3[nH]ccc23)ncc1F
### Response 500 to 5000 nM

### Prompt Return Ki (reported value) for this compound: c1ccc(COc2ccccc2-c2ccnc3[nH]ccc23)cc1
### Response > 5000 nM

### Prompt Give the value of Ki reported for the following: CC1CCCN1C(=O)c1csc(-c2ccnc3[nH]ccc23)n1 (stereo not drawn)
### Response < 500 nM

### Prompt Provide measured Ki value, entry: COC(=O)N1CC[C@@H](Nc2c(Cl)cnc3[nH]ccc23)C1
### Response < 500 nM

### Prompt Please indicate Ki recorded for O=C(NCC(F)(F)F)[C@H]1CCCCN1c1ccnc(-c2ccnc3[nH]ccc23)n1
### Response 500 to 5000 nM

### Prompt // fetch Ki given entry C#CCN(C)C(=O)c1cc(-c2ccnc3[nH]ccc23)c[nH]1
### Response < 500 nM

### Prompt For CCCNC(=O)c1cc(-c2ccnc3[nH]ccc23)c[nH]1 , write its Ki.
### Response < 500 nM

### Prompt Report Ki, nothing else, for this compound: CC[C@H](C)NC(=O)c1cc(-c2ccnc3[nH]ccc23)c[nH]1
### Response < 500 nM

====

Biological target: ROCK I (Homo sapiens)
Test: ROCK-I inhibition assay (radioactive enzyme assay, MBP substrate)
Type: biochemical
Conditions: enzyme inhibition, Ki(app), Table 5
endpoint: Ki

### Prompt Give Ki for O=C(O)c1cccc(-c2ccnc3[nH]ccc23)c1 tested on ROCK I (Homo sapiens).
### Response 500 to 5000 nM

### Prompt Report its Ki with ROCK I (Homo sapiens) as the test system: CC(C)(Nc1nc(-c2ccnc3[nH]ccc23)nc2ccccc12)C(=O)NCC(F)(F)F
### Response 500 to 5000 nM

### Prompt Write down measured Ki (ROCK I (Homo sapiens)) for this molecule. c1cc(CN2CCOCC2)cc(-c2ccnc3[nH]ccc23)c1
### Response 500 to 5000 nM

### Prompt Given Cc1n[nH]c(C)c1-c1ccnc2[nH]ccc12 , report its Ki on ROCK I (Homo sapiens).
### Response 500 to 5000 nM

### Prompt Quote Ki with test system ROCK I (Homo sapiens) for CN(C)Cc1cccc(-c2ccnc3[nH]ccc23)c1
### Response < 500 nM

### Prompt Report Ki from ROCK I (Homo sapiens) testing of CN(CC(O)c1ccccc1)c1cccc(-c2ccnc3[nH]ccc23)n1 (stereo not shown)
### Response < 500 nM

### Prompt For ROCK I (Homo sapiens), give Ki of the listed molecule: OC1CCN(c2cccc(-c3ccnc4[nH]ccc34)n2)C1 (stereo not shown)
### Response 500 to 5000 nM

### Prompt Lab note: ROCK I (Homo sapiens) assay, enter Ki for Fc1cccc(-c2ccnc3[nH]ccc23)n1 here
### Response 500 to 5000 nM

### Prompt State recorded Ki with ROCK I (Homo sapiens), entry c1cc(-c2ccnc3[nH]ccc23)nc(N2CCc3ccccc3C2)c1 , no comment.
### Response 500 to 5000 nM

### Prompt Give reported Ki for CC(=O)Nc1ccccc1-c1ccnc2[nH]ccc12 (ROCK I (Homo sapiens))
### Response 500 to 5000 nM

### Prompt Answer with Ki of CCCNC(=O)c1ccc(-c2ccnc3[nH]ccc23)s1 measured for ROCK I (Homo sapiens).
### Response < 500 nM

### Prompt Quote ROCK I (Homo sapiens) Ki for entry CC(=O)Nc1cccc(-c2ccnc3[nH]ccc23)c1 .
### Response 500 to 5000 nM

### Prompt GET Ki where system = ROCK I (Homo sapiens) and item = c1cc(NCC2COc3ccccc3O2)nc(-c2ccnc3[nH]ccc23)c1 (stereo not shown)
### Response 500 to 5000 nM

### Prompt System ROCK I (Homo sapiens). Read-out Ki. Item O=C(O)c1cc(-c2c(Cl)cnc3[nH]ccc23)c[nH]1 . Report value.
### Response 500 to 5000 nM

### Prompt Tell me Ki of C[C@H](Nc1nc(-c2ccnc3[nH]ccc23)ncc1F)C(=O)NCC(F)(F)F when tested on ROCK I (Homo sapiens).
### Response 500 to 5000 nM

### Prompt Report value: Ki, system: ROCK I (Homo sapiens), molecule: COC[C@@H]1CCCN1C(=O)c1ccc(-c2ccnc3[nH]ccc23)s1
### Response 500 to 5000 nM

### Prompt Param request: Ki | system ROCK I (Homo sapiens) | item O=C(c1ccc(-c2ccnc3[nH]ccc23)s1)N1CCC[C@@H]1CO
### Response < 500 nM

### Prompt Write Ki of N#CCC(=O)N1CC=C(c2ccnc3[nH]ccc23)CC1 ; system used: ROCK I (Homo sapiens)
### Response < 500 nM

### Prompt Give Ki only, for O=C(CC(F)(F)F)N1CC=C(c2ccnc3[nH]ccc23)CC1 , using ROCK I (Homo sapiens) data.
### Response < 500 nM

These data points were gathered from patent US8921376B2.
